test system: HCC-2998 colon; assay: NCI-60 one-dose screen, 48 h; details: 10 µM unless noted
This is part of a sample that, as a whole, favours compounds with a hit. Of some 83,000 tested, about 20% had one in any assay. Calls of active or inactive are those of the source. The calls were made as follows: active = growth percent below 10; inactive = the rest.
Outcomes: active, inactive

- CCCOc1ccc(-c2nc(-c3ccc(N)cc3)cs2)cc1: inactive
- NC(=O)c1cccc(-c2ccc(S(=O)(=O)Nc3ccc4c(c3)N(C(=O)C3CC3)CCC4)cc2)c1: inactive
- CCc1ccc(NC(=O)N[C@@H](Cc2cc(F)cc(F)c2)C(=O)N[C@@H]2C(=O)N3C[C@H](O)C[C@H]3C(=O)N3CCOC[C@H]3C(=O)N[C@@H](C)C(=O)N3C[C@H](C)C[C@H]3C(=O)O[C@H]2C)cc1: inactive
- CCCCCCCCCCCCCC[n+]1cccc(C(N)=O)c1: active
- C=C1C(=O)O[C@H]2[C@H]1CC/C(COC(=O)NCc1ccc(Cn3c(=O)sn(-c4ccc(Cl)cc4)c3=O)cc1)=C\CC[C@@]1(C)O[C@@H]21: inactive
- C[C@@H](NC(=O)[C@@H](CC(=O)N1CCC(N2CCCCC2)CC1)N1C(=O)[C@@H](N2C(=O)OC[C@@H]2c2ccccc2)[C@H]1/C=C/c1cccc(Cl)c1)c1ccccc1: inactive
- CCOC(=O)Nc1ccc2c(c1)/C(=N\NC(=S)NC)c1ccccc1-2: inactive
- Fc1ccc(NC(=S)c2ccccc2)cc1: inactive
- CC(=O)Nc1ccc2nc3ccc(NC(C)=O)cc3[n+](-c3ccccc3)c2c1: inactive
- Cc1cc(N2CCCCCC2)nc(N2CCN(CC(=O)Nc3ccc4c(ccn4Cc4ccccc4)c3)CC2)n1: inactive
- Cn1cc(-c2noc(-c3cn(C)c4ncc(F)cc34)n2)c2cc(Br)ccc21: inactive
- CCNC(=O)N1CCc2c(Cl)c3c(c(OC)c2[C@@H]1[C@H]1OCc2c1ccc(OC)c2OC)OCCO3: inactive
- c1ccc(-c2nnc(-c3c[nH]c4ncccc34)s2)cc1: inactive
- CC1=C/C(=C(\c2cc(C)c(O)c(C(=O)O)c2)c2c(Cl)cccc2Cl)C=C(C(=O)O)C1=O: inactive
- CC/C=C(\C)C(CCC)(CN=O)C(=O)OCC (configuration not stated): inactive
- Cc1cc(C)nc(SCC(=O)Nc2cccc(N=Cc3ccccc3O)c2)n1: inactive
- CC(=O)n1cc(C=O)c2ccccc21: inactive
- CCOc1ccc(/C=C(\C#N)c2cc3ccccc3[nH]2)cc1: inactive
- CCOC(=O)COc1ccc2c(c1)O/C(=C\c1ccc(O)cc1)C2=O: inactive
- CCCCCn1c(C)cc(/C=C\c2ccc3cc(C)ccc3[n+]2C)c1C: active
- COc1ccc(NC(=O)Nc2ccc(-c3cccnc3)cc2N2CCC(CO)CC2)cc1: inactive
- C[C@H]1[C@H](C)CC[C@]2(C(=O)O)CC[C@]3(C)C(=CC[C@@H]4[C@@]5(C)C/C(=C/c6cccnc6)[C@H](O)C(C)(C)[C@@H]5CC[C@]43C)[C@H]12: active

====

# maps each entry to its growth
system: RPMI-8226 leukemia; test: NCI-60 one-dose screen, 48 h (100 = growth as untreated, 0 = no growth, -100 = all killed); conditions: 10 µM unless noted
Compounds without any hit were thinned out: in the full panel of roughly 83,000, 20% have a hit. The source made the active and inactive calls. Rule for the calls: active = growth percent below 10; inactive = the rest.
readout.name: growth

- C#C[C@]1(O)CC[C@H]2[C@@H]3CC=C4c5nc(Nc6ncccn6)sc5CC[C@]4(C)[C@H]3CC[C@@]21C: -12.3% (active)
- C[C@H]1[C@H](C)CC[C@]2(COC(=O)CCC(=O)O)CC[C@]3(C)C(=CC[C@@H]4[C@@]5(C)CCCNC(C)(C)[C@@H]5CC[C@]43C)[C@H]12: 59.7% [100 µM] (inactive)
- N#C/C(C(=O)c1ccccc1)=C1/C(=O)Nc2ccc(Br)cc21: 102% (inactive)
- O=C(NCCCCCCCNC(=O)OCc1ccc2c(Cl)cc(Cl)c(O)c2n1)OCc1ccc2c(Cl)cc(Cl)c(O)c2n1: -15.5% (active)
- COc1ccc2c(c1)c(-c1noc(C(=O)c3cn(C)c4ncc(Br)cc34)n1)cn2C: 62.2% (inactive)
- COc1ccc2nc3c(cc2c1)C(=O)CC(C(F)(F)F)C3 (centres undefined): 93.3% (inactive)
- N#CC1C(=O)NC(c2ccccc2[N+](=O)[O-])c2sc3c(F)cccc3c21 (centres undefined): 41.3% (inactive)
- Cc1ccc2c(n1)C(=O)C(Cl)=C(Nc1ccc(N3CCN(C)CC3)cc1)C2=O: -32.6% (active)
- O=C(Nc1ccc(Nc2ccncc2)cc1)c1ccc([N+](=O)[O-])cc1: 22.8% (inactive)
- C[C@@H]1C[C@H]2C(=O)O[C@@H](C)[C@H](NC(=O)[C@H](Cc3cc(F)cc(F)c3)NC(=O)Nc3ccc(Cl)cc3F)C(=O)N3C[C@H](O)C[C@H]3C(=O)N3CCN(C)C[C@H]3C(=O)N[C@@H](C)C(=O)N2C1: 20.4% (inactive)
- Cc1nc(Cl)c2c(n1)N(C)c1ccc(Cl)cc1C(C)C2 (centres undefined): 66.8% (inactive)
- CNC(=O)c1cc(Oc2ccc3nc(NC(=O)c4ccc5ncccc5c4)sc3c2)ccn1: 71.9% (inactive)
- CC(C)(C)c1cc(C(=O)Nc2cc3ccccc3cc2C(=O)NCCN)cc(C(C)(C)C)c1: -47.8% (active)
- Cc1ccc(S(=O)(=O)Oc2ccc([N+](=O)[O-])cc2[N+](=O)[O-])cc1: 53.2% (inactive)
